Ref: patent US11572354B2

test protocol: Pharmacokinetics studies in mice (plasma and brain concentration)
Format: in vivo
study conditions: mouse, 20 mg/kg IP, Brain
endpoint: Tmax (min)

1. Brc1ccc2[nH]c(Cn3cncc3-c3ccc[nH]3)cc2c1 [Compound G28]: 30

---

test protocol: Tissue protein binding (micro-equilibrium dialysis)
Type: in vitro ADME, mice
study conditions: pooled mouse plasma, 6 hours at 37° C.; read-out: fu,plasma / % FU Plasma
endpoint: fraction unbound at 6 h

1) Brc1ccc2[nH]c(Cn3cncc3-c3ccc[nH]3)cc2c1: 0.0117

---

experimental system: UniProt:P14902
Sequence (P14902 whole entry): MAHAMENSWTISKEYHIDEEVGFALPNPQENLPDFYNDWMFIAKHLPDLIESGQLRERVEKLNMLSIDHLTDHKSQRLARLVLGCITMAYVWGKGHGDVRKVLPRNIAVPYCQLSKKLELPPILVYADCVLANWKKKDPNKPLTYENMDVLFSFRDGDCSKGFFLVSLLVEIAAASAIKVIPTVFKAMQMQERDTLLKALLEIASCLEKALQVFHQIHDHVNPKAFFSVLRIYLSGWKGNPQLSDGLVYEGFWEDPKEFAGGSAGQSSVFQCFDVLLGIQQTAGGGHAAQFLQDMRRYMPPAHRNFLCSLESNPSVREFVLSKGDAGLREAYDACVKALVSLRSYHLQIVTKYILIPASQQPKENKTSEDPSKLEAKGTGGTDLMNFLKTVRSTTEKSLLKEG
test protocol: IDO1 inhibition in HEK293/IDO1 transfected cells
Assay type: cell-based
study conditions: HEK293/TRIPZ-IDO1 cells, 24 h after doxycycline induction, means N≥3
pEC50: −log10 of the molar value.
Listed compounds paired with reported pEC50
endpoint: pEC50

1) COc1ccc(Cn2cncc2-c2cc3cc(Br)ccc3[nH]2)cc1: 5.37
2) Fc1ccc2[nH]c(Cn3cncc3-c3ccc[nH]3)cc2c1: 6.60
3) Brc1ccc2[nH]c(Cn3cncc3-c3ccc[nH]3)cc2c1: 6.33
